Target: Integrin alpha-4/beta-1 (Homo sapiens, UniProt P05556+P13612)
Sequence (P05556 whole entry): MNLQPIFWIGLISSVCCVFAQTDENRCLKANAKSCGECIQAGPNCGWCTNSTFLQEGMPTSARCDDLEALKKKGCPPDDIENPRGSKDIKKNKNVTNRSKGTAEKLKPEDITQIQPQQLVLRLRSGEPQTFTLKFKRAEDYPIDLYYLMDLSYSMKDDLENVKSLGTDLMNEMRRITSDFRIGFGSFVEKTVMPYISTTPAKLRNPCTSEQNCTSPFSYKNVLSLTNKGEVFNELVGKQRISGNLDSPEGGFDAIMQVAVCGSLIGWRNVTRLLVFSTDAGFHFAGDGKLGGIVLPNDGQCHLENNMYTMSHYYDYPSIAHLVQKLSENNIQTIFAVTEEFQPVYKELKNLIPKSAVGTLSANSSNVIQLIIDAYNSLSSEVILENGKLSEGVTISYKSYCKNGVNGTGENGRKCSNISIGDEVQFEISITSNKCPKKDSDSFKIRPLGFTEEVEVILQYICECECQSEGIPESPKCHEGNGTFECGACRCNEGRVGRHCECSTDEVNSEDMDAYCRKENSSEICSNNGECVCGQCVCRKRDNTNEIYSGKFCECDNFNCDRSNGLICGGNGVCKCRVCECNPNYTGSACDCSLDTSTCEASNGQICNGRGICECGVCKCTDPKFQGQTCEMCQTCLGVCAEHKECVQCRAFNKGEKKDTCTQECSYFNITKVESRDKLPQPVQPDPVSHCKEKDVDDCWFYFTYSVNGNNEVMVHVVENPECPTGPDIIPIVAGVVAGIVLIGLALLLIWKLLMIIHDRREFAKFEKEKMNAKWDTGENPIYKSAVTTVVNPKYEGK
Sequence (P13612 whole entry): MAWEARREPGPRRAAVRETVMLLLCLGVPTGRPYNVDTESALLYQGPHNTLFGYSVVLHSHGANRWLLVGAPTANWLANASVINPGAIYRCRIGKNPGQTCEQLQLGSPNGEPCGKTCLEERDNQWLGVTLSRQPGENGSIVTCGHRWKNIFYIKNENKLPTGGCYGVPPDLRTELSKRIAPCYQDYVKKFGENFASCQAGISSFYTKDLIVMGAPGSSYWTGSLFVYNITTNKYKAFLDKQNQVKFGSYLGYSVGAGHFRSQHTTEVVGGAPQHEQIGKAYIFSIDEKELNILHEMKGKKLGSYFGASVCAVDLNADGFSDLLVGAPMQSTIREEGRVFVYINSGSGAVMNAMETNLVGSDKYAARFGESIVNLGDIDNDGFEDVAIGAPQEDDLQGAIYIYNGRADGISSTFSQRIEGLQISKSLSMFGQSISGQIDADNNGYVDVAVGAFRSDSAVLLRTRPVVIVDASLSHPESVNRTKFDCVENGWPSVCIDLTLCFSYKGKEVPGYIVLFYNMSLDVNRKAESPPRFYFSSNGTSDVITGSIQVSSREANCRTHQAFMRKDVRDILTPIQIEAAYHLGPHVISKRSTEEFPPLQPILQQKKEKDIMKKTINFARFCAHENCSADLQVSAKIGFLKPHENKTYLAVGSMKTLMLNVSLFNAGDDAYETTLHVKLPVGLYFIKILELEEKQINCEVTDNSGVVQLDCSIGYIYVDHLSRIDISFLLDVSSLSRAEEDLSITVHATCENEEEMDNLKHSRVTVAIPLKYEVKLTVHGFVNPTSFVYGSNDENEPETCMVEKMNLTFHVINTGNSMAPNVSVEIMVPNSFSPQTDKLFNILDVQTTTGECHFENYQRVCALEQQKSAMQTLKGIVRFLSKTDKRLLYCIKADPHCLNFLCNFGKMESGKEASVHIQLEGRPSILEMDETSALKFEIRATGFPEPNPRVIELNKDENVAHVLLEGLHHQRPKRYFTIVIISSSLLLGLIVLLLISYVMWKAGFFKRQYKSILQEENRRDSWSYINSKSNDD
Assay: In vitro Very late antigen 4 cell adhesion inhibitory activity measured by binding of fluorescently labeled Ramos cells to immobilized VCAM-1.
Assay type: cell-based
In plain terms, low IC50, meaning strictly below 0.1 µM, gives Yes, and everything else gives No.

Study these solved cases before continuing.
molecule | qualitativeLabel
C/C=C/[C@H](CC(=O)O)NC(=O)CN(CCC(C)C)C(=O)Cc1ccc(NC(=O)Nc2ccccc2C)cc1 | Yes
Cc1ccccc1NC(=O)Nc1ccc(CC(=O)N[C@H](CC(=O)N[C@@H](C(=O)O)c2ccccc2)CC(C)C)cc1 | No
Cc1ccccc1NC(=O)Nc1ccc(CC(=O)N[C@H](CC(C)C)C(=O)N(CCC(=O)O)CCc2ccccc2)cc1 | No

Switching to the query record.
Request: Confirm or reject: IC50 of C=CCC(CC(=O)O)NC(=O)N(CC(C)C)NC(=O)Cc1ccc(NC(=O)Nc2ccccc2C)cc1 (stereo unspecified) lies strictly below 0.1 µM
Result: No
